Consider the following compounds; for each one, report its inhibition at 10 µM.
systemTested: UniProt P08684
Sequence (P08684 whole entry): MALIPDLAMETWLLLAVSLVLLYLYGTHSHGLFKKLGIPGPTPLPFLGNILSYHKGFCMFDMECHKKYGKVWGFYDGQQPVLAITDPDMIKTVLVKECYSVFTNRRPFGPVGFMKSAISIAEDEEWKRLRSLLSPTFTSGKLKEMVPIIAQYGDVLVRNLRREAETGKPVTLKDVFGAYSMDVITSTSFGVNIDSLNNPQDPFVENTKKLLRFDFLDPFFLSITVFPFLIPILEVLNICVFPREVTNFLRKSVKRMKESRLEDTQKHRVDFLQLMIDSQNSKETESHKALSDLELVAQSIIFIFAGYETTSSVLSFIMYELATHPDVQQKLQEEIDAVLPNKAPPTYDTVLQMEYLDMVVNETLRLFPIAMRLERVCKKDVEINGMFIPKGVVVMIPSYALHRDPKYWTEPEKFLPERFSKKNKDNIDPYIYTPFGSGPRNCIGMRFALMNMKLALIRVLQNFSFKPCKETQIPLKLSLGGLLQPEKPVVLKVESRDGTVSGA
procedureText: Cytochrome P450 (CYP450) Inhibition Assay, CYP3A4 (Vivid fluorescence, BOMCC substrate)
conditionContext: human, P450 Baculosomes (recombinant CYP3A4), probe BOMCC (Vivid substrate)

Record excerpt, results attached:
>  <compound>
CCC(CC)CNC(=O)c1cccc(CN2C(=O)C3(COc4cc5c(cc43)CCO5)c3ccccc32)c1 (centres unmarked)

>  <result>
> 50%

$$$$
>  <compound>
COc1cc2c(cc1F)C1(CO2)C(=O)N(Cc2ccccc2)c2ccccc21 (centres unmarked)

>  <result>
< 50%

$$$$
>  <compound>
O=C1N(Cc2cccnc2)c2ccccc2C12COc1cc(F)c(F)cc12 (centres unmarked)

>  <result>
> 50%

$$$$

Dear reader, for each entry below, please note its inhibition at 10 µM.
1. O=C1N(C[C@H]2CCCO2)c2cccc(-c3cc(C(F)(F)F)cc(C(F)(F)F)c3)c2C12COc1cc3c(cc12)CCO3 (some centres unmarked)
2. CCc1ccc(NC(=O)c2ccccc2CN2C(=O)C3(COc4cc5c(cc43)CCO5)c3ccccc32)cc1 (centres unmarked)
3. Cc1nc2cc3c(cc2s1)C1(CO3)C(=O)N(CCC(C)C)c2ccccc21 (centres unmarked)
4. C[C@@H](NC(=O)c1cccc(CN2C(=O)C3(COc4cc5c(cc43)CCO5)c3ccccc32)c1)C1CCCCC1 (some centres unmarked)
5. O=C1N(Cc2ccc(OCc3ccccc3)cc2)c2ccccc2[C@]12COc1cc3c(cc12)OCCO3

1. > 50%
2. < 50%
3. > 50%
4. > 50%
5. < 50%
